- TESTED_SYSTEM: T1, Human BCMA (human, UniProt Q02223 1-54, limits assumed)
- T1 construct: Soluble analyte in SPR; construct not described; also called huBCMA; B-cell maturation antigen
- T1 sequence (looked up): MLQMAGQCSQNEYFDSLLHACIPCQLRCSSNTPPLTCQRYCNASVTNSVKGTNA
- ASSAY_PROCEDURE: SPR, IgG immobilised, 25 C
# T ½ annotations
TEST_READOUT: T ½ (min)

>>> val("L3.NY/P6E01 (antibody, V domains shown, IgG) VH: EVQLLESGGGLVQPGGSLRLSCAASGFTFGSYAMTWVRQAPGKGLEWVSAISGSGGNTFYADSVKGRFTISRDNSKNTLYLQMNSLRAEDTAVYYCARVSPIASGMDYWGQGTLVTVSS VL: EIVLTQSPGTLSLSPGERATLSCRASQSVSSSYLAWYQQKPGQAPRLLIYGASSRATGIPDRFSGSGSGTDFTLTISRLEPEDFAVYYCQHYNYPPSFTFGQGTKVEIK")
30.1
>>> val("L1.LGF/L3.NY/H3.AL (antibody, V domains shown, IgG) VH: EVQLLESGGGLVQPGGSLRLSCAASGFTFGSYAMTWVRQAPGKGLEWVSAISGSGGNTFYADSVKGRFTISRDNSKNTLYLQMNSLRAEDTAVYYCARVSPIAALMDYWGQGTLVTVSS VL: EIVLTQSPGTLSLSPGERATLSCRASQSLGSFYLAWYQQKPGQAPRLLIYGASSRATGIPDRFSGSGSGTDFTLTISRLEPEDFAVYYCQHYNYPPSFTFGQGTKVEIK")
11.9
>>> val("L1.LGF/L3.KW/H3.AP (antibody, V domains shown, IgG) VH: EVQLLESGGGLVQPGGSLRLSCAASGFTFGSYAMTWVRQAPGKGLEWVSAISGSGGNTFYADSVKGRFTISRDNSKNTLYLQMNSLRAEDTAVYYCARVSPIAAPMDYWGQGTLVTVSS VL: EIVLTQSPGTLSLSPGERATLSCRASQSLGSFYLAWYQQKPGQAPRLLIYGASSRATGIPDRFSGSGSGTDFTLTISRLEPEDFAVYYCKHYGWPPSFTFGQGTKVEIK")
5.1

meta.source: patent US20160297884A1
